Molecular target: SpHof1
Experiment: SPOT peptide array binding signal intensity (averaged, normalized) (arbitrary units (background-subtracted, floor 0; scale differs between SH3 domains)); higher = stronger binding of the SH3 domain to the peptide
The binders listed here are annotated with their SPOT peptide array binding signal intensity.

Answered cases to consult:
binder=STKKPRPPVKSKPKH experimental_result=11.8
binder=DRIRMFIRFPKFLLE experimental_result=264
binder=ILARAILTIPRVLDK experimental_result=82.2
binder=KKEKKPPKIPKKVYT experimental_result=1.75
binder=LKPPIGRPPKFPKSP experimental_result=1.38

Request: GET /values?readout=SPOT peptide array binding signal intensity&item= IKTRSVPKIPSIESV
Result: 6

Request: GET /values?readout=SPOT peptide array binding signal intensity&item= NNNKMRPHLPPLSSG
Result: 9.5
